- method_description: viability of HCT116 without oncogenic beta-catenin – human colon tumor cells, pilot screen (AID 823);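 further: 0% = wells killed by 20 µM Hyamine and 100% = untreated DMSO cell wells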
- condition: HCT116 beta-catenin knockout viability, CellTiter-Glo, 60 h; at 10 µM; hits give low values
Results filed as inconclusive are left out.
Lab note: cut-off is 90%. Strictly less in viability is label 1. Exactly 90% or more is label 0.

>>> df
                                   compound  answer_label
0  COc1ccc(OC)c(NC(=O)C2CCC(CNc3c(N4CCC(C)CC4)c(=O)c3=O)CC2)c1 (configuration not stated)       label 1
1  Cn1c(=O)oc2cc(S(=O)(=O)N3CCC(C(=O)NCC4COc5ccccc5O4)CC3)ccc21 (configuration not stated)       label 0
2  O=c1c2ccccc2nc(N2CCN(c3ccccc3)CC2)n1Cc1ccccc1       label 1
3  O=C(CCS(=O)(=O)c1cccc2nonc12)N1CCN(c2ccc(F)cc2)CC1       label 0

====

- method_description: S. cerevisiae growth inhibition in permissive medium (OD615), pilot counter-assay for S. cerevisiae lifespan shortening project, permissive growth control (AID 705)
- condition: OD615, 24 h, at 10 µM, hits give high values
experimental_endpoint: growth inhibition (%)

                                    compound  endpoint_value
 0  O=C(CCCCn1c(=O)[nH]c2ccsc2c1=O)NCC1CCCO1 (configuration not stated)            2.62
 1  CCOc1ccc(NC(=O)C2CSC(c3ccncc3)=N2)cc1 (configuration not stated)           -3.44
 2  CC1CCN(c2nc(-c3ccccc3)cc(C(F)(F)F)n2)CC1           -10.7
 3     COC(=O)CNc1c(-c2ccccn2)nc2ccc(Br)cn12           -20.4
 4              c1ccc(CNc2ncnc3nc[nH]c23)nc1           -12.5
 5  CCOc1ccc(CN2CCNC(=O)C2CC(=O)OC)cc1 (configuration not stated)           0.415
 6  CSc1nc(NCCOCCO)c2sc3nc(-c4ccco4)c4c(c3c2n1)CCC4           -7.22
 7  COc1ccc(C)cc1NC(=O)CSc1nnc(-c2ccccn2)n1Cc1ccco1           -2.92
 8  CCCCn1c(Oc2ccc(C(=O)OC)cc2)nc2c1c(=O)n(C)c(=O)n2C           -10.3
 9  COC(=O)c1c(-c2ccc(F)cc2)csc1NC(=O)c1ccco1           -27.6
10  COc1ccc(NC(=O)c2nnn(Cc3ccc(SC)cc3)c2N)c(OC)c1           -1.88
11  N#CC1=C2SCN(c3ccccc3)CN2C(=O)CC1c1ccccc1Cl (configuration not stated)            6.17
12              CCCOc1cccc(C(=O)Nc2cccnc2)c1            -6.8
13  CCOc1ccccc1C(=O)Nc1ccc2nc(N3CCN(c4ncccn4)CC3)cc(C)c2c1             5.8
14  CCOC(=O)c1ccccc1NC1c2ccccc2C(=O)N1c1ccc(C)cn1 (configuration not stated)           -11.3
15  COc1cccc(CSc2nc3sc(C)c(C)c3c(=O)n2Cc2ccco2)c1            6.35
16  Cc1ccc(-c2nc3cnccn3c2Nc2ccc3c(c2)OCCO3)o1           -11.4

====

- method_description: viability of PTEN-null HCT116 cells – cell-based, HCT116 clonal line, CellTiter-Glo, pilot screen (AID 824);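 further: 0% = 20 µM Hyamine control and 100% = vehicle cell control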
- condition: HCT116 PTEN-deleted viability, 60 h, at 10 µM, hits give low values
Results filed as inconclusive are left out.
Each item that follows carries a reported viability.
experimental_endpoint: viability (%)

>>> df
                                   compound  unit_spec  endpoint_value
0         O=S1(=O)C=C(SCCN2CCCCC2)c2ccccc21          %            66.9
1   COc1ccc(-c2noc(-c3cc(C)cc(C)c3)n2)cc1OC          %            96.6
2  COc1cc(C2CC(=O)c3c([nH]c(C(=O)OCCOC(C)C)c3C)C2)cc(OC)c1OC (stereo not given)          %            42.7
3       Cc1c(C(=O)O)nn(-c2ccccc2)c(=O)c1C#N          %             102
4  CCOC(=O)C1=C(N)OC2=C(C(=O)CC(C)(C)C2)C1C1CCCCC1 (stereo not given)          %            92.9

====

Each item that follows carries a reported viability.
- method_description: viability of HCT116 without oncogenic beta-catenin – human colon tumor cells, pilot screen (AID 823);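 further: 0% = wells killed by 20 µM Hyamine and 100% = untreated DMSO cell wells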
- condition: HCT116 beta-catenin knockout viability, CellTiter-Glo, 60 h; at 10 µM; hits give low values
Inconclusive results are not listed.
experimental_endpoint: viability (%)

>>> df
                                   compound  endpoint_value
0  N#CCCn1cc(C(CC(=O)c2ccc(Br)cc2)C(=O)O)c2ccccc21 (stereo not drawn)            91.7
1  CCC(Sc1nc2c(cnn2-c2ccccc2)c(=O)[nH]1)C(=O)OC (stereo not drawn)            91.8
2  Cc1noc(/C=C/NCc2cccnc2)c1S(=O)(=O)N(C)CC(=O)N1CCc2ccccc21            91.2
